ASSAY_NAME: in vitro
CONDITION_DETAILS: human, CC50 [μM] (Geomeans, n ≥ 2 except where indicated: *n = 1)
Structures can show the parent of a compound that is named as a salt.

# COMPOUND, CC50
measured = [
    ("CC(CN1CCN(c2cccc3c2CCCN3)CC1)NC(=O)c1ccc(F)cc1 (stereo not drawn)", "> 39.8 µM"),
    ("COc1cc(-n2cnc3cc(-c4ccc(Cl)cc4)sc3c2=O)ccc1OCCN1CCCC1", "18.9 µM"),
    ("Cc1cccc(/C=N/Nc2cc(N3CCOCC3)nc(OCCc3ccccn3)n2)c1", "> 27.8 µM"),
    ("CC(C)(C)NC(=O)N[C@H](C(=O)N1C[C@H]2[C@@H]([C@H]1C(=O)NC(CC1CCC1)C(=O)C(N)=O)C2(C)C)C(C)(C)C (stereo partly drawn)", "> 39.8 µM"),
    ("Nc1nc(Nc2ccc3c(c2)CC[C@@H](N2CCCC2)CC3)nn1-c1cc2c(nn1)-c1ccccc1CCC2", "15.7 µM"),
    ("Nc1cc(OCC2CC2)c(C(=O)NC2CN3CCC2CC3)cc1Cl (stereo not drawn) [Pancopride]", "> 37.3 µM"),
    ("COC(=O)C1=C(C)NC(C)=C(C(=O)OC)C1c1cc([N+](=O)[O-])ccc1OCCCCNC[C@H](O)COc1ccccc1", "11.3 µM"),
    ("OC(CNCC(O)C1CCc2cc(F)ccc2O1)C1CCc2cc(F)ccc2O1 (stereo not drawn) [nebivolol hydrochloride]", "> 11.1 µM"),
    ("CCN(CCO)CCCC(C)Nc1ccnc2cc(Cl)ccc12 (stereo not drawn) [hydroxychloroquine, nasal, hydroxychloroquine]", "> 18.3 µM"),
    ("CCOC(=O)[C@@H]1O[C@H]1C(=O)N[C@@H](CC(C)C)C(=O)N1CCN(Cc2ccc(OC)c(OC)c2OC)CC1", "> 39.8 µM"),
    ("COc1ccc2nc3cc(Cl)ccc3c(Nc3cc(CN4CCCC4)c(O)c(CN4CCCC4)c3)c2n1", "> 7.39 µM"),
    ("CN(C)CCC(Oc1ccc2c(c1)C(=O)CC(c1ccccc1)O2)c1ccccc1 (stereo not drawn)", "> 23.5 µM"),
    ("c1ccc2c(c1)Sc1ccccc1N2CC1CN2CCC1CC2 (stereo not drawn)", "17.3 µM"),
    ("CCCCN1CC[C@H](c2ccc(N(C)C)cc2)[C@@H](COc2ccc(C(F)(F)F)cc2)C1", "> 15.4 µM"),
    ("C=CC(=O)Nc1cc(Nc2nccc(-c3cn(C)c4ccccc34)n2)c(OC)cc1N(C)CCN(C)C", "> 18.1 µM"),
]
